# Assay Overview: Binding affinity to synthetic melanin at 5.8 mg/100 mL after 15 mins by UV-spectroscopic analysis
# Format: physicochemical
# Condition Context: 0.25 h
Measured Parameter: Activity
Please report the result as a number followed by the unit.

Lab note: measured Activity of CN(C)/N=N\c1ccnc2c(Br)cccc12 was 48.1%

Lab note: measured Activity of CN(C)/N=N/c1[nH]cnc1C(N)=O was 19.3%

Lab note: measured Activity of CN(C)/N=N\c1ccnc2ccc(I)cc12 was 60.6%

Lab note: measured Activity of CN(C)/N=N\c1ccnc2cc(Br)ccc12 was 57.3%

Lab note: measured Activity of CN(C)/N=N\c1ccnc2ccc(Br)cc12 was 55.3%

Lab note: measured Activity of CN(C)/N=N\c1ccnc2c(Cl)cccc12 was 56.4%

Lab note: measured Activity of CN(C)/N=N\c1ccnc2cc(Cl)ccc12 was 48%

Lab note: measured Activity of CN(C)/N=N\c1ccnc2ccc(Cl)cc12 was 41%
